ASSAYED TARGET: SYK (Homo sapiens, UniProt P43405)
Construct: purchased Invitrogen (SelectScreen)
TEST NAME: SelectScreen kinase specificity survey
Assay type: biochemical
PROTOCOL CONDITIONS: estimated, abridged dose response curve, read-out: Kinase inhibitory activity EC50
QUANTITY MEASURED: EC50 (µM)
Write the number in µM without appending the unit.

*Q* Which EC50 reading was recorded for the compound CCN(CC)CCNc1ccc2ncn3c4ccc(O)cc4c(=O)c1c23 [Symadex, reference compound] ?
*A* 3.91

====

The reader will find reported EC50 values listed item by item below.
ASSAYED TARGET: PRKCE (PKC epsilon) (Homo sapiens)
Construct: purchased Invitrogen, Inc. (SelectScreen platform)
Sequence (Q02156 1-737): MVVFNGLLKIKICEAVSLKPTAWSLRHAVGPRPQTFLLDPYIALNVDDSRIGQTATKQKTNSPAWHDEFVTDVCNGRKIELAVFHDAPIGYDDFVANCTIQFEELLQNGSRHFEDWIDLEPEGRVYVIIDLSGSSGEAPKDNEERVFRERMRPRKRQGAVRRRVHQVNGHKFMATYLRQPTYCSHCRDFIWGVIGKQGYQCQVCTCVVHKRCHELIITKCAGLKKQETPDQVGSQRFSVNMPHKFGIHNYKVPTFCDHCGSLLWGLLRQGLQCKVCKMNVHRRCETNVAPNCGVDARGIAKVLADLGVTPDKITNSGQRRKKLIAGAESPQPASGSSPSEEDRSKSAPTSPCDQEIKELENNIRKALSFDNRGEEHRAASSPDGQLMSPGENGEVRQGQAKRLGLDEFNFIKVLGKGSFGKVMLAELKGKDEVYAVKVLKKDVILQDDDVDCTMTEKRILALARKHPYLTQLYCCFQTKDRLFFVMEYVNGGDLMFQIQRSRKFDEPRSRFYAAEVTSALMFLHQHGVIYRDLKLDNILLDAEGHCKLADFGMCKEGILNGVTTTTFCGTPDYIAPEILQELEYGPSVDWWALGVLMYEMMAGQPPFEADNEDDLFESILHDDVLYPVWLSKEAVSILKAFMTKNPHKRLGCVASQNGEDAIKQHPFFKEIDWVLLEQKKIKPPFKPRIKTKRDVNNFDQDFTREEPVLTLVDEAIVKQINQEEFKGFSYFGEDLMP
TEST NAME: SelectScreen kinase specificity survey
Format: biochemical
PROTOCOL CONDITIONS: estimated, abridged dose response curve, read-out: Kinase inhibitory activity EC50

CCN(CC)CCNc1ccc2ncn3c4ccc(O)cc4c(=O)c1c23 [Symadex, reference compound]	> 5000 nM

API: the following record is the query input.
*Q* Please give the measured EC50 for this compound: CN(C)CCCNc1ccc2ncn3c4ccc5[nH]ncc5c4c(=O)c1c23 [Compound (IV)]
*A* 2520 nM

====

# key: entry, value: EC50
ASSAYED TARGET: MAPK1 (ERK2) (Homo sapiens, UniProt P28482)
Sequence (P28482 whole entry): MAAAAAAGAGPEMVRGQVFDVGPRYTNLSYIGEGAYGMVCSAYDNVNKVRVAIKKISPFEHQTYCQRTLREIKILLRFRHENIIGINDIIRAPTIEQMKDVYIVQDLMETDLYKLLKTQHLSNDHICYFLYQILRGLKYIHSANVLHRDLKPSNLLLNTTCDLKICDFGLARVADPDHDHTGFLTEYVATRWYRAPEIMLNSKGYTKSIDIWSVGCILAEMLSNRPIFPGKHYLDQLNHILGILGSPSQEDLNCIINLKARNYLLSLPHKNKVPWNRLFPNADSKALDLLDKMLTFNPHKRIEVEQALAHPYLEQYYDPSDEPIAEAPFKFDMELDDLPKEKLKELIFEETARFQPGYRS
TEST NAME: SelectScreen kinase specificity survey
PROTOCOL CONDITIONS: estimated, abridged dose response curve, read-out: Kinase inhibitory activity EC50
Method: Testing of the compounds described in this invention was carried out using the SelectScreen™ platform from Invitrogen, Inc. (Carlsbad. Calif., USA) and the details of its performance are readily viewed via the web by linking to: http://www.invitrogen.com/downloads/SelectScrn_Brochure.pdf. Briefly, the approach is based on treating each specific kinase with a unique substrate and optical reporter system in the presence of ATP at 100 micromolar. […]

CN(C)CCCNc1ccc2ncn3c4ccc5[nH]ncc5c4c(=O)c1c23	> 5 µM

*Q* Under MAPK1 (ERK2) (Homo sapiens, UniProt P28482): EC50 value of CCN(CC)CCNc1ccc2ncn3c4ccc(O)cc4c(=O)c1c23 [Symadex, reference compound] ?
*A* > 5 µM
